- TARGET_OR_TEST_SYSTEM: T1, P12-AA
- T1 chain: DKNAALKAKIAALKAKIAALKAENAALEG
- ASSAY_EXPLANATION: two-hybrid library CCmax;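 also: natural log of median RNA to DNA barcode read ratio; higher means stronger binding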
REPORTED_PROPERTY: interaction score
Respond with the number and no other words.

Use the examples below as a reference point.
> print(dat)
                                    binder  reported.property  observed.measurement
1  KRLKQIEKRLQAKEWEKAQLRKELQALRK [4H_APH4]  interaction score                 -2.07
2  KRAKQLRKRLQALEWQLAQIRKELQAAEK [4H_APH3]  interaction score                 -1.53
3   DKNAALKAKIAALKAKIAALKAENAALEG [P12-AA]  interaction score                 -1.64

Recorded result, KRLKQLRKRKQAKRWEEAQIEKELQAIEK [4H_APH2] , interaction score: -1.31
